# tgt: vanilloid receptor (Rattus norvegicus)
# Construct: DRG nerve cells from the primary culture of 2 days were equilibrated; endogenous in cells; host or cells: primary culture of dorsal root ganglion neurons from neonatal SD rats
# protocol summary: 45Ca influx test in cultured neonatal rat DRG neurons, inhibition of capsaicin response
# Type: cell-based
# condition set: neonatal rat DRG neurons, capsaicin 0.5 μM, 45Ca influx; read-out: Antagonist Calcium Uptake Test (IC50)
Could you mark each record T if its IC50 falls strictly under 600 nM, and F if it equals or exceeds it?

For C#Cc1cc(CNC(=O)/C=C/c2ccc(C(F)(F)F)nc2C(C)C)cc(F)c1NS(C)(=O)=O , is the recorded IC50 below the cut-off of 600 nM? T

For C#Cc1cc(CNC(=O)/C=C/c2ccc(C(F)(F)F)nc2OCc2ccccc2)cc(F)c1NS(C)(=O)=O , is the recorded IC50 below the cut-off of 600 nM? F

For CCCCOc1nc(C(F)(F)F)ccc1/C=C/C(=O)NCc1ccc(NS(C)(=O)=O)c(C)c1 , is the recorded IC50 below the cut-off of 600 nM? T

For CS(=O)(=O)Nc1ccc(CNC(=O)COc2ccc(C(F)(F)F)nc2)cc1F , is the recorded IC50 below the cut-off of 600 nM? F

For CCCCOc1nc(C(F)(F)F)ccc1/C=C/C(=O)N[C@H](C)c1ccc(NS(C)(=O)=O)c(F)c1 , is the recorded IC50 below the cut-off of 600 nM? T

For CC[C@@H](C)c1nc(C(F)(F)F)ccc1/C=C/C(=O)NCc1ccc(NS(C)(=O)=O)c(C)c1 , is the recorded IC50 below the cut-off of 600 nM? T

For C#Cc1cc(CNC(=O)CCc2ccc(C(F)(F)F)nc2N2CCCC2)cc(F)c1NS(C)(=O)=O , is the recorded IC50 below the cut-off of 600 nM? T

For CS(=O)(=O)Nc1ccc(CNC(=O)/C=C/c2ccc(C(F)(F)F)nc2Cl)cc1F , is the recorded IC50 below the cut-off of 600 nM? F

* * *

# tgt: vanilloid receptor (Rattus norvegicus)
# Construct: DRG nerve cells from the primary culture of 2 days were equilibrated; endogenous in cells; host or cells: primary culture of dorsal root ganglion neurons from neonatal SD rats
# protocol summary: 45Ca influx test in cultured neonatal rat DRG neurons, inhibition of capsaicin response
# Assay type: cell-based
# condition set: neonatal rat DRG neurons, capsaicin 0.5 μM, 45Ca influx; read-out: Antagonist Calcium Uptake Test (IC50)
attribute measured: IC50 (µM)
Answer in µM, number only, no unit symbol.

Can you look up the measured IC50 of CCC(C)Nc1nc(C(F)(F)F)ccc1/C=C/C(=O)NCc1cc(F)c(NS(C)(=O)=O)c(C#N)c1 (stereo not shown) [Example 124] for me? 0.088

Can you look up the measured IC50 of C#Cc1cc(CNC(=O)/C=C/c2ccc(C(F)(F)F)nc2NCCCC)cc(F)c1NS(C)(=O)=O [Example 72] for me? 0.16

Can you look up the measured IC50 of COCC#Cc1nc(C(F)(F)F)ccc1/C=C/C(=O)NCc1ccc(NS(C)(=O)=O)c(F)c1 [Example 154] for me? 2.1

* * *

# tgt: vanilloid receptor (Rattus norvegicus)
# Construct: DRG nerve cells from the primary culture of 2 days were equilibrated; endogenous in cells; host or cells: primary culture of dorsal root ganglion neurons from neonatal SD rats
# protocol summary: 45Ca influx test in cultured neonatal rat DRG neurons, inhibition of capsaicin response
# Format: cell-based
# condition set: neonatal rat DRG neurons, capsaicin 0.5 μM, 45Ca influx; read-out: Antagonist Calcium Uptake Test (IC50)
Field: pIC50. Provide a value for each of the compounds that follow.
// pIC50 here means minus log10 of the molar concentration (mol/L)

Can you look up the measured pIC50 of C#Cc1cc(CNC(=O)/C=C/c2ccc(C(F)(F)F)nc2CCCCC)cc(F)c1NS(C)(=O)=O for me? 7.19

Can you look up the measured pIC50 of C[C@@H](NC(=O)/C=C/c1ccc(C(F)(F)F)nc1CCc1ccccc1)c1ccc(NS(C)(=O)=O)c(F)c1 for me? 7.02

Can you look up the measured pIC50 of CC(C)Nc1nc(C(F)(F)F)ccc1/C=C/C(=O)NCc1ccc(NS(C)(=O)=O)c(F)c1 for me? 6.92

Can you look up the measured pIC50 of Cc1cc(CNC(=O)/C=C/c2ccc(C(F)(F)F)nc2NC(C)C)ccc1NS(C)(=O)=O for me? 7.14

Can you look up the measured pIC50 of Cc1cc(CNC(=O)/C=C/c2ccc(C(F)(F)F)nc2C(C)C)ccc1NS(C)(=O)=O for me? 7.10

Can you look up the measured pIC50 of CCCNc1nc(C(F)(F)F)ccc1/C=C/C(=O)NCc1cc(F)c(NS(C)(=O)=O)cc1F for me? 6.92

Can you look up the measured pIC50 of CCCCCc1nc(C(F)(F)F)ccc1/C=C/C(=O)NCc1cc(C)c(NS(C)(=O)=O)c(F)c1 for me? 7.01

* * *

# tgt: vanilloid receptor (Rattus norvegicus)
# Construct: DRG nerve cells from the primary culture of 2 days were equilibrated; endogenous in cells; host or cells: primary culture of dorsal root ganglion neurons from neonatal SD rats
# protocol summary: 45Ca influx test in cultured neonatal rat DRG neurons, inhibition of capsaicin response
# Format: cell-based
# condition set: neonatal rat DRG neurons, capsaicin 0.5 μM, 45Ca influx; read-out: Antagonist Calcium Uptake Test (IC50)
pIC50: −log10 of the molar value.
Field: pIC50. Provide a value for each of the molecules that follow.

Can you look up the measured pIC50 of C#Cc1cc(CNC(=O)COc2ccc(C(C)(C)C)nc2)cc(F)c1NS(C)(=O)=O [Examples 34] for me? < 5.00

Can you look up the measured pIC50 of CS(=O)(=O)Nc1ccc(CNC(=O)/C=C/c2ccc(Br)nc2)cc1F [Example 20] for me? < 5.00

Can you look up the measured pIC50 of C=CS(=O)(=O)Nc1ccc(CNC(=O)/C=C/c2ccc(C(F)(F)F)nc2NC(C)C)cc1 [Example 267] for me? 6.35

Can you look up the measured pIC50 of CC(C)Nc1nc(C(F)(F)F)ccc1/C=C/C(=O)NCc1ccc(NS(=O)(=O)C(F)(F)F)cc1 [Example 270] for me? < 5.00

* * *

Field: IC50. Provide a value for each of the compounds that follow.
# tgt: vanilloid receptor (Rattus norvegicus, UniProt O35433)
# Construct: DRG nerve cells from the primary culture of 2 days were equilibrated; endogenous in cells; host or cells: primary culture of dorsal root ganglion neurons from neonatal SD rats
# Sequence (O35433 whole entry): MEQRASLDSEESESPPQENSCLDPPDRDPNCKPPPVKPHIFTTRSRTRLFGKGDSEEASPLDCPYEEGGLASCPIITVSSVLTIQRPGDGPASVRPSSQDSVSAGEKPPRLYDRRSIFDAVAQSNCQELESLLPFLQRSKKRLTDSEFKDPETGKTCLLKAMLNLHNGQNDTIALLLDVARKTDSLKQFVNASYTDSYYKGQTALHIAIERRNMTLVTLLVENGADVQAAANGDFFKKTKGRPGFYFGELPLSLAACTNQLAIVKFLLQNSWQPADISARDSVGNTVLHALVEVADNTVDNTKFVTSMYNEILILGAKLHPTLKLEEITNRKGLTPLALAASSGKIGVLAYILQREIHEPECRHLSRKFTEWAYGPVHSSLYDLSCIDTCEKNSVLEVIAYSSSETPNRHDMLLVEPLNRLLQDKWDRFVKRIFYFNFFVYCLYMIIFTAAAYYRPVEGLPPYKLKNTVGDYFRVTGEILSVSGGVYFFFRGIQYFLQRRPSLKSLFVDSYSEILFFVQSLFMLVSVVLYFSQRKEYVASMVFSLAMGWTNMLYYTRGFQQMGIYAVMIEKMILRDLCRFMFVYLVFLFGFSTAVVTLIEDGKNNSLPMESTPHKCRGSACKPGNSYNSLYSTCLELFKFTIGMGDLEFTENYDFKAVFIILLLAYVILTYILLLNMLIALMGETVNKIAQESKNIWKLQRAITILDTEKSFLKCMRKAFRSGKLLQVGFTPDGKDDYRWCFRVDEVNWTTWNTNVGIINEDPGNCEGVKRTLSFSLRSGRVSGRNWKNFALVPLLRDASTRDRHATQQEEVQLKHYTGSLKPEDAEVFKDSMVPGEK
# protocol summary: 45Ca influx test in cultured neonatal rat DRG neurons, inhibition of capsaicin response
# Type: cell-based
# condition set: neonatal rat DRG neurons, capsaicin 0.5 μM, 45Ca influx; read-out: Antagonist Calcium Uptake Test (IC50)
Answer in nM, number only, no unit symbol.

Can you look up the measured IC50 of C#Cc1cc(CNC(=O)/C=C/c2ccc(C(F)(F)F)nc2C#CCOC)cc(F)c1NS(C)(=O)=O for me? 1100

Can you look up the measured IC50 of CCC/C(=C\C(=O)NCc1ccc(NS(C)(=O)=O)c(Cl)c1)c1ccc(C(F)(F)F)nc1CCC for me? 740

Can you look up the measured IC50 of CS(=O)(=O)Nc1c(F)cc(CNC(=O)/C=C/c2ccc(C(F)(F)F)nc2N2CCOCC2)cc1F for me? 1100

* * *

Field: IC50. Provide a value for each of the compounds that follow.
# tgt: vanilloid receptor (Rattus norvegicus, UniProt O35433)
# Construct: DRG nerve cells from the primary culture of 2 days were equilibrated; endogenous in cells; host or cells: primary culture of dorsal root ganglion neurons from neonatal SD rats
# protocol summary: 45Ca influx test in cultured neonatal rat DRG neurons, inhibition of capsaicin response
# Type: cell-based
# condition set: neonatal rat DRG neurons, capsaicin 0.5 μM, 45Ca influx; read-out: Antagonist Calcium Uptake Test (IC50)
Answer in µM, number only, no unit symbol.

Record lookup: for vanilloid receptor (Rattus norvegicus, UniProt O35433), what IC50 belongs to C#Cc1cc(CNC(=O)/C=C/c2ccc(C(F)(F)F)nc2-c2ccccc2)cc(F)c1NS(C)(=O)=O [Example 107] ? 0.51

Record lookup: for vanilloid receptor (Rattus norvegicus, UniProt O35433), what IC50 belongs to CC(C)Nc1nc(C(F)(F)F)ccc1/C=C/C(=O)N[C@H](C)c1cc(F)c(NS(C)(=O)=O)c(F)c1 [Example 227] ? 0.019

Record lookup: for vanilloid receptor (Rattus norvegicus, UniProt O35433), what IC50 belongs to CCCNc1nc(C(F)(F)F)ccc1/C=C/C(=O)N[C@H](C)c1cc(F)c(NS(C)(=O)=O)c(F)c1 [Example 229] ? 0.015

Record lookup: for vanilloid receptor (Rattus norvegicus, UniProt O35433), what IC50 belongs to C[C@@H](NC(=O)/C=C/c1ccc(C(F)(F)F)nc1-c1cccc(F)c1)c1ccc(NS(C)(=O)=O)c(F)c1 [Example 181] ? 0.27

Record lookup: for vanilloid receptor (Rattus norvegicus, UniProt O35433), what IC50 belongs to CC(C)(C)c1ccc(/C=C/C(=O)NCc2ccc(NS(C)(=O)=O)c(F)c2)cn1 [Examples 1] ? 1.3

Record lookup: for vanilloid receptor (Rattus norvegicus, UniProt O35433), what IC50 belongs to CS(=O)(=O)Nc1c(F)cc(CNC(=O)/C=C/c2ccc(C(F)(F)F)nc2CCc2ccccc2)cc1F [Example 203] ? 0.12

Record lookup: for vanilloid receptor (Rattus norvegicus, UniProt O35433), what IC50 belongs to C#Cc1cc(CNC(=O)/C=C/c2ccc(C(F)(F)F)nc2-c2cccc(F)c2)cc(F)c1NS(C)(=O)=O [Example 120] ? 0.31

Record lookup: for vanilloid receptor (Rattus norvegicus, UniProt O35433), what IC50 belongs to CS(=O)(=O)Nc1ccc(CNC(=O)/C=C/c2ccc(C(F)(F)F)nc2OCC(F)(F)F)cc1F [Example 87] ? 2.2

Record lookup: for vanilloid receptor (Rattus norvegicus, UniProt O35433), what IC50 belongs to C#Cc1cc(CNC(=O)/C=C/c2ccc(C(F)(F)F)nc2N2CCOCC2)cc(F)c1NS(C)(=O)=O [Example 12] ? 0.26

Record lookup: for vanilloid receptor (Rattus norvegicus, UniProt O35433), what IC50 belongs to C#Cc1cc(CNC(=O)/C=C/c2ccc(C(F)(F)F)nc2Oc2ccccc2)cc(F)c1NS(C)(=O)=O [Example 78] ? 0.12

Record lookup: for vanilloid receptor (Rattus norvegicus, UniProt O35433), what IC50 belongs to CCC(C)Nc1nc(C(F)(F)F)ccc1/C=C/C(=O)NCc1cc(F)c(NS(C)(=O)=O)c(F)c1 (stereo not shown) [Example 129] ? 0.047
